- assayed_system: human TLR7 (Homo sapiens (Human))
- run_description: TLR7 inhibition reporter assay (HEK-Blue, SEAP)
- condition_summary: HEK-Blue cells overexpressing human TLR7, gardiquimod 7.5 μM stimulation
pIC50: −log10 of the molar value.
reported_metric: pIC50

Look over these answered cases.
compound=CC(C)c1c(-c2ccnc3n[nH]cc23)[nH]c2ccc(-c3nc(C(=O)NC4CCN(C(C)C)CC4)co3)cc12 readout_number=6.86
compound=COc1ccc(-c2[nH]c3ccc(-c4nnc(Cc5c[nH]cn5)o4)cc3c2C(C)C)cc1OC readout_number=6.81
compound=CC(C)c1c(-c2ccnc3[nH]ncc23)[nH]c2ccc(-c3nnc(C4CCNCC4)o3)cc12 readout_number=6.90

[a] Cc1cc(-c2[nH]c3ccc(-c4nnc(C5CCNCC5)[nH]4)cc3c2C(C)C)ccn1
[b] Cc1cc(-c2[nH]c3ccc(-c4nnc(CCN5CCCCC5)o4)cc3c2C(C)C)ccn1
[c] CNCc1nnc(-c2ccc3[nH]c(-c4ccnc5n[nH]cc45)c(C(C)C)c3c2)o1
[d] CCc1c(-c2ccnc(C)c2)[nH]c2ccc(-c3noc(C4CCNC4)n3)cc12 (centres unmarked)
Exam item: Rank order required: pIC50, descending. Rank them, then answer with their labels in that order.
Marked response: d, b, a, c

###

- assayed_system: human TLR7 (Homo sapiens (Human), UniProt Q9NYK1)
- Sequence (Q9NYK1 27-1049): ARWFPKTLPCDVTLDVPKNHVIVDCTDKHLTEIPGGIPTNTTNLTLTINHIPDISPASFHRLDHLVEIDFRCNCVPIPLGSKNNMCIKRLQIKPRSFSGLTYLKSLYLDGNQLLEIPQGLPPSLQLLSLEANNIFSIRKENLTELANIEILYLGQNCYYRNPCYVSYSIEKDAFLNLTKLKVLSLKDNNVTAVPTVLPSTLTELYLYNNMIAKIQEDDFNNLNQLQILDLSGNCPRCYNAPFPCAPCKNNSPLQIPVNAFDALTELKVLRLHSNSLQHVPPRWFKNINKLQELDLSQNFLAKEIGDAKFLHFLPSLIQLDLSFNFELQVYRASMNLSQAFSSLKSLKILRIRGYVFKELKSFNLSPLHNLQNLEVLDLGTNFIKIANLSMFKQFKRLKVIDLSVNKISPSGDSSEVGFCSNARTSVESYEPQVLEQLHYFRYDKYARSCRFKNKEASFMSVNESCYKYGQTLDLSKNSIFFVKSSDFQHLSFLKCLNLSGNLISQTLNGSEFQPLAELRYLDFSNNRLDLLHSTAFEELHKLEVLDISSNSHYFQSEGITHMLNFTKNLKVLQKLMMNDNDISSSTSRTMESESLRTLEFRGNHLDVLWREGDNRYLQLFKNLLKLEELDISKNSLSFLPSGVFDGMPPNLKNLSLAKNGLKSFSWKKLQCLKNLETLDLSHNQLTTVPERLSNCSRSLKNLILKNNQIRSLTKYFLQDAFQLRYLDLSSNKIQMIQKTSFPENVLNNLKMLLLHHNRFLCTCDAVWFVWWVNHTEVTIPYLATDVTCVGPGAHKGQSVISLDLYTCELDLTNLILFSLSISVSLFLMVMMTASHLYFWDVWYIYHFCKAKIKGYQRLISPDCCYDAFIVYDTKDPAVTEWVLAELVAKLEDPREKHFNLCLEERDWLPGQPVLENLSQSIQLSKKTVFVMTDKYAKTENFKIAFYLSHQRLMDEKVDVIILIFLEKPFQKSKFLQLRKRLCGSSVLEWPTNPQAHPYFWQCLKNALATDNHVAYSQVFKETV
- run_description: TLR7 inhibition reporter assay (HEK-Blue, SEAP)
- condition_summary: HEK-Blue cells overexpressing human TLR7, gardiquimod 7.5 μM stimulation
reported_metric: IC50 (nM)

Look over these answered cases.
molecule=CCc1c(-c2ccc(OC)c(OC)c2)[nH]c2ccc(-c3cccnc3)cc12 assayed_system="human TLR7 (Homo sapiens (Human), UniProt Q9NYK1)" readout_number=3880
molecule="Cc1cc(-c2[nH]c3ccc(-c4nnc(C5CCCC(N)C5)o4)cc3c2C(C)C)ccn1 (stereo not shown)" assayed_system="human TLR7 (Homo sapiens (Human), UniProt Q9NYK1)" readout_number=980
molecule=COc1ccc(-c2[nH]c3ccc(-c4nnc(CN(C)C)o4)cc3c2C(C)C)cc1OC assayed_system="human TLR7 (Homo sapiens (Human), UniProt Q9NYK1)" readout_number=266
molecule=CNCCCNC(=O)c1coc(-c2ccc3[nH]c(-c4cc(C)nc(C)c4)c(C(C)C)c3c2)n1 assayed_system="human TLR7 (Homo sapiens (Human), UniProt Q9NYK1)" readout_number=14

[1] Cc1cc(-c2[nH]c3ccc(-c4ccc(C(N)=O)nc4)cc3c2C(C)C)cc(C)n1
[2] COc1ccc(-c2[nH]c3ccc(-c4cnc(N5CCN(Cc6cccn6C)CC5)nc4)cc3c2C(C)C)cc1OC
Exam item: Param metric = IC50; output whichever of 1 , 2 has the minimum value. # answer = label of selected item
Marked response: 1

[A] Cc1cc(-c2[nH]c3ccc(-c4cnc(C5CCNCC5)[nH]4)cc3c2C(C)C)ccn1
[B] Cc1cc(-c2[nH]c3ccc(-c4nc(C(=O)NCCN5CCCCC5)co4)cc3c2C(C)C)cc(C)n1
Exam item: Param metric = IC50; output whichever of A , B has the minimum value. # answer = label of selected item
Marked response: B

[1] Cc1cc(-c2[nH]c3ccc(-c4nnc([C@@H]5CCCC[C@@H]5N)o4)cc3c2C(C)C)ccn1
[2] Cc1cn2cc(-c3[nH]c4ccc(-c5ccc(N6CCN(C)CC6)nc5)cc4c3C(C)C)ccc2n1
[3] COc1ccc(-c2[nH]c3ccc(-c4ccc(N5CCCN(C)CC5)cc4)cc3c2C(C)C)cc1OC
[4] Cc1cc(-c2[nH]c3ccc(-c4nnc(NC(=O)CN(C)C)o4)cc3c2C(C)C)ccn1
Exam item: Rank order required: IC50, descending. Rank them, then answer with their labels in that order.
Marked response: 3, 4, 1, 2
(3: 881 nM, 4: 258 nM, 1: 38 nM, 2: 14 nM)

[1] COc1ccc(-c2[nH]c3ccc(-c4ccc(N5CCNCC5)nc4)cc3c2C(C)C)cc1OC
[2] Cc1cc(-c2[nH]c3ccc(-c4cc5c(s4)CN(Cc4c[nH]c(C)n4)CC5)cc3c2C(C)C)cc(C)n1
[3] Cc1cc(-c2[nH]c3ccc(-c4nnc(C5CCN(C(=O)CN(C)C)CC5)o4)cc3c2C(C)C)ccn1
[4] COc1ccc(-c2[nH]c3ccc(-c4ccc(NC5CCCNC5)cc4)cc3c2C(C)C)cc1OC (stereo not shown)
[5] COc1ccc(-c2[nH]c3ccc(-c4nnc(C5CNC5)o4)cc3c2C(C)C)cc1OC
Exam item: Hey, can you sort those molecules up there by IC50, smallest first? Rank them, then answer with their labels in that order.
Marked response: 2, 3, 1, 4, 5
(2: 3.7 nM, 3: 31 nM, 1: 49 nM, 4: 200 nM, 5: 381 nM)

###

- assayed_system: human TLR8 (Homo sapiens (Human), UniProt Q9NR97)
- Sequence (Q9NR97 27-1041): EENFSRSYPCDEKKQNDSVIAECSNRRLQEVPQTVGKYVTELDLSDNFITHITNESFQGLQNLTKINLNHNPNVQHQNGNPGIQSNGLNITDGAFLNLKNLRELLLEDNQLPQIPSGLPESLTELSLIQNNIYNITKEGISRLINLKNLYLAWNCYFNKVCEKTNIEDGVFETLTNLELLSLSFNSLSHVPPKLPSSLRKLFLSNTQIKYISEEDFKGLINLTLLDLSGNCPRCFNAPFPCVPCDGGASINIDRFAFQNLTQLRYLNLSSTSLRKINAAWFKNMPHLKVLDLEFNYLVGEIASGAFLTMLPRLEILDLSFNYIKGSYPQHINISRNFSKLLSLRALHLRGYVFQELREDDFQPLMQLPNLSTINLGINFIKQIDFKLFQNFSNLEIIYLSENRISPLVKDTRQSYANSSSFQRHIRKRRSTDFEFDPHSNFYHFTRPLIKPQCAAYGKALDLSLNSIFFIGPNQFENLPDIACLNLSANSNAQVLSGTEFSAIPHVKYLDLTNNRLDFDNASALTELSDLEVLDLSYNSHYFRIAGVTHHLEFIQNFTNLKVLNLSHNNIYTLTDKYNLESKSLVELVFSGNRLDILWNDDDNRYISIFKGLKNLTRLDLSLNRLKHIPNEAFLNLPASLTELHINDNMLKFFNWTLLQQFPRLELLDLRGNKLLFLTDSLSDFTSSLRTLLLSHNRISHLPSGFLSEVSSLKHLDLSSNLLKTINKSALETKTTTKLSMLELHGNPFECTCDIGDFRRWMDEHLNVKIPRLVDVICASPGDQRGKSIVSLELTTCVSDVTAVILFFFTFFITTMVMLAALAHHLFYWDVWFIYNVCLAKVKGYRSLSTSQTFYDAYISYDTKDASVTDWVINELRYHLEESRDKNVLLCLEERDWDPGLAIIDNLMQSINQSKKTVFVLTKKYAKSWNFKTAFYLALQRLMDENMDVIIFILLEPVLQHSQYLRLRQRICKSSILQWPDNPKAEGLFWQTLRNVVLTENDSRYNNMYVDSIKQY
- run_description: TLR8 inhibition reporter assay (HEK-Blue, SEAP)
- condition_summary: HEK-Blue cells overexpressing human TLR8, R848 15.9 μM stimulation
reported_metric: IC50 (nM)

Look over these answered cases.
molecule="Cc1cc(-c2[nH]c3ccc(-c4nc(C(=O)NCCCN5CCCC5)co4)cc3c2C(C)C)cc(C)n1 [Example 284]" reported_metric=IC50 readout_number=9.6
molecule="COc1ccc(-c2[nH]c3ccc(-c4ncc[nH]4)cc3c2C(C)C)cc1OC [Example 165]" reported_metric=IC50 readout_number=7.3
molecule="CC(C)c1c(-c2ccnc3[nH]ncc23)[nH]c2ccc(-c3nnc(C4CCCN(C)C4)o3)cc12 (centres unmarked) [Example 167]" reported_metric=IC50 readout_number=3.2

[P] Cc1cc(-c2[nH]c3ccc(-c4nnc(C(=O)NCCCN(C)C)o4)cc3c2C(C)C)cc(C)n1 [Example 224]
[Q] CNC(=O)CN1CCCC(c2nnc(-c3ccc4[nH]c(-c5ccnc(C)c5)c(C(C)C)c4c3)[nH]2)C1 (centres unmarked) [Example 175]
[R] COc1ccc(-c2[nH]c3ccc(-c4nnc(CN(C)C)o4)cc3c2C(C)C)cc1OC [Example 44]
Exam item: Hey, can you sort those molecules up there by IC50, smallest first? Rank them, then answer with their labels in that order.
Marked response: P, Q, R
(P: 2.5 nM, Q: 7.4 nM, R: 14 nM)

[I] CC(C)c1c(-c2ccnc3[nH]ncc23)[nH]c2ccc(-c3nnc(C4CCCN(C)C4)o3)cc12 (centres unmarked) [Example 162]
[II] COc1ccc(-c2[nH]c3ccc(-c4nnc(C5CNC5)o4)cc3c2C(C)C)cc1OC [Example 53]
Exam item: Given I and II , report the one with the higher recorded IC50. # answer = label of selected item
Marked response: II

###

- assayed_system: human TLR9 (Homo sapiens (Human), UniProt Q9NR96)
- Sequence (Q9NR96 26-1032): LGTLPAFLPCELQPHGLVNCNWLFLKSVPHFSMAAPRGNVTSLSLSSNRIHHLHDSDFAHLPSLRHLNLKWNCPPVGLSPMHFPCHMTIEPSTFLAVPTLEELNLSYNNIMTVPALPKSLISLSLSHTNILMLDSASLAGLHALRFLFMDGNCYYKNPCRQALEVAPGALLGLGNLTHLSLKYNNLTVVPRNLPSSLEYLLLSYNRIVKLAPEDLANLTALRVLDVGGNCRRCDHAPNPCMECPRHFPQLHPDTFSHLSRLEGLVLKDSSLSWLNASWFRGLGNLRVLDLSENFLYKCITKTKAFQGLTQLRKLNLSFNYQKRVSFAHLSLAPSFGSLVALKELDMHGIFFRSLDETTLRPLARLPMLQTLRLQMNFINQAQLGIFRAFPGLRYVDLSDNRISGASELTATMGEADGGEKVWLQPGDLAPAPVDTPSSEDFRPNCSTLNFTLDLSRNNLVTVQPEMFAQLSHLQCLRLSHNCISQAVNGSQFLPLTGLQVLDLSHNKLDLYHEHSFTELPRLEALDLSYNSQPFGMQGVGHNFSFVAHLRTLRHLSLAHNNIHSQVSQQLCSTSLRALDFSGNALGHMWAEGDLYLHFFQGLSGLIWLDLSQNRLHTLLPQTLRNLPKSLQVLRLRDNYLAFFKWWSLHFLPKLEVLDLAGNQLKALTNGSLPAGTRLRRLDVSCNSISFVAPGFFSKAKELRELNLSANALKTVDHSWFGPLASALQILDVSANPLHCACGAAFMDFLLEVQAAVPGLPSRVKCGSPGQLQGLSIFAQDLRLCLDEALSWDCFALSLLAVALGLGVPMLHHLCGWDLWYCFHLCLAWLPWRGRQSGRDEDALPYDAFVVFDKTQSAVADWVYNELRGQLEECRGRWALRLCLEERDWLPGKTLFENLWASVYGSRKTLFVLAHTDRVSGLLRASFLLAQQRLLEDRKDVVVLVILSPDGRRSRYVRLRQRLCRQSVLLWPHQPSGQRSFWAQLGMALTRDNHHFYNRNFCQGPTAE
- run_description: TLR9 inhibition reporter assay (HEK-Blue, SEAP)
- condition_summary: HEK-Blue cells overexpressing human TLR9, ODN2006 5 nM stimulation
reported_metric: IC50 (µM)

compound=Cc1cc(-c2[nH]c3ccc(-c4nn5c(c4C(N)=O)CNCC5)cc3c2C(C)C)ccn1 unit_spec=µM readout_number=35

[A] Cc1oc(-c2ccc3[nH]c(-c4ccnc5[nH]ncc45)c(C(C)C)c3c2)nc1C(=O)NCC1CCNC1 (stereo not shown)
[B] Cc1cc(-c2[nH]c3ccc(-c4nnc(CC5CCCCN5)o4)cc3c2C(C)C)ccn1 (stereo not shown)
Exam item: Param metric = IC50; output whichever of A , B has the minimum value. # answer = label of selected item
Marked response: B

[a] COc1ccc(-c2[nH]c3ccc(-c4nnc(C5CCN(Cc6ccccc6)CC5)[nH]4)cc3c2C(C)C)cc1OC
[b] Cc1cc(-c2[nH]c3ccc(-c4nnc(C5CCCN(C(C)C)C5)o4)cc3c2C(C)C)ccn1 (stereo not shown) [Example 312]
Exam item: Given a and b , report the one with the higher recorded IC50. # answer = label of selected item
Marked response: a

###

- assayed_system: UniProt:Q9NYK1
- run_description: TLR7 inhibition reporter assay (HEK-Blue, SEAP)
- condition_summary: HEK-Blue cells overexpressing human TLR7, gardiquimod 7.5 μM stimulation
reported_metric: IC50 (nM)

Look over these answered cases.
compound=CCc1c(-c2ccc(OC)c(OC)c2)[nH]c2ccc(-c3noc(C4CCN(Cc5ccccc5)CC4)n3)cc12 unit_spec=nM readout_number=3130
compound=Cc1cc(-c2[nH]c3ccc(-c4nnc(C5CCN(C)CC5)o4)cc3c2C(C)C)cn2ncnc12 unit_spec=nM readout_number=0.37
compound=CNc1ccc(-c2ccc3[nH]c(-c4ccnc(C)c4)c(C(C)C)c3c2)cn1 unit_spec=nM readout_number=67
compound="COc1ccc(-c2[nH]c3ccc(-c4ccnc(N5CCN(CCC(C)O)CC5)c4)cc3c2C(C)C)cc1OC (stereo not drawn)" unit_spec=nM readout_number=1490
compound=CCOC(=O)N1CCC(NC(=O)c2coc(-c3ccc4[nH]c(-c5cc(C)nc(C)c5)c(C(C)C)c4c3)n2)CC1 unit_spec=nM readout_number=147
compound=COc1ccc(-c2[nH]c3ccc(-c4nnc([C@@H]5CCCNC5)o4)cc3c2CC(F)(F)F)cc1OC unit_spec=nM readout_number=47
compound="Cc1cc(-c2[nH]c3ccc(-c4cccc(C(=O)N5CC6CNCC6C5)c4)cc3c2C(C)C)ccn1 (stereo not drawn)" unit_spec=nM readout_number=27
compound=COc1ccc(-c2[nH]c3ccc(-c4nnc(C5CCN(C(=O)CN(C)C)CC5)o4)cc3c2C(C)C)cc1OC unit_spec=nM readout_number=28
compound=Cc1cc(-c2[nH]c3ccc(-c4cnc(C5CCNCC5)s4)cc3c2C(C)C)ccn1 unit_spec=nM readout_number=37
compound="Cc1cc(-c2[nH]c3ccc(-c4nnc(C5CN6CCC5CC6)o4)cc3c2C(C)C)cc(C)n1 (stereo not drawn) [Example 296]" unit_spec=nM readout_number=4.8

[A] Cc1cc(-c2[nH]c3ccc(-c4nc(C(=O)NC5CCCNC5)co4)cc3c2C(C)C)cc(C)n1 (stereo not drawn)
[B] CNCCc1nnc(-c2ccc3[nH]c(-c4ccnc(C)c4)c(C(C)C)c3c2)o1
[C] COc1ccc(-c2[nH]c3ccc(-c4ccc(NCCN5CCOCC5)cc4)cc3c2C(C)C)cc1OC
[D] CC(C)c1c(-c2ccnc3[nH]ncc23)[nH]c2ccc(-c3nnc(CN4CC[C@@H](N(C)C)C4)o3)cc12
[E] COc1ccc(-c2[nH]c3ccc(-c4nnc(C5CCN(CC(=O)N(C)C)CC5)[nH]4)cc3c2C(C)C)cc1OC
Exam item: Rank order required: IC50, descending. Rank them, then answer with their labels in that order.
Marked response: C, D, E, A, B

[A] Cc1cn2cc(-c3[nH]c4ccc(-c5ccc(N6CCNCC6)nc5)cc4c3C(C)C)ccc2n1
[B] Cc1cc(-c2[nH]c3ccc(-c4nc(C(=O)NCC(C)(C)N5CCOCC5)co4)cc3c2C(C)C)cc(C)n1
Exam item: Given A and B , report the one with the higher recorded IC50. # answer = label of selected item
Marked response: B
